Test system: biotinyl-Trp-oxazolone
Test: self-aminoacylation, catalytic enhancement (BWO) (fold over background); higher = more active; k-Seq, kA / k0A0; sequences stand for … in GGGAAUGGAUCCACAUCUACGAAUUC…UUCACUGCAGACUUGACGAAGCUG
This sample holds only a part of the variants without activity.
Threshold check on self-aminoacylation: at or above 1 gives t, strictly below gives f.

Below are worked cases with known answers.
monomer.sequence: AUUCACCUAGCUCAUUGGGUG [Fam2.2 aminoacylation ribozyme variant]
group: t
--
monomer.sequence: AUUCACCUAGGUCAAUGGGUG [Fam2.2 aminoacylation ribozyme variant]
group: t

Task item: Textbook exercise: given the entry AUUCACCUAGGUAAUAGGGUG [Fam2.2 aminoacylation ribozyme variant] , state whether its self-aminoacylation is greater than or equal to 1.
Reply: t

Task item: Textbook exercise: given the entry CCACAUUUCAAGCGAUCGGUC [Fam1B.1 aminoacylation ribozyme variant] , state whether its self-aminoacylation is greater than or equal to 1.
Reply: t

Task item: Textbook exercise: given the entry CCACACUUCAAGCGAUCGGUU [Fam1B.1 aminoacylation ribozyme variant] , state whether its self-aminoacylation is greater than or equal to 1.
Reply: t

Task item: Textbook exercise: given the entry AUACUGCAAACAAUCGGUCUG [Fam1A.1 aminoacylation ribozyme variant] , state whether its self-aminoacylation is greater than or equal to 1.
Reply: t

Task item: Textbook exercise: given the entry AUUCACCUCGGUCAUAGGGUG [Fam2.2 aminoacylation ribozyme variant] , state whether its self-aminoacylation is greater than or equal to 1.
Reply: t

Task item: Textbook exercise: given the entry AAGUUUGAUACUAGUCGCAAG [Fam3.1 aminoacylation ribozyme variant] , state whether its self-aminoacylation is greater than or equal to 1.
Reply: f
